Target: CD4 (Homo sapiens, UniProt P01730)
Assay: CD4 down-modulation, flow cytometry with FITC-conjugated anti-CD4 (SK3) mAb, SupT1 cells
Type: cell-based
Set-up: To study the effect of the CADA derivatives on surface CD4 antigen expression, MT-4 and SupT1 cells were incubated; endogenous in cells; host or cells: MT-4, SupT1, PBMC
Details: day 4, read-out: IC50 CD4 (50% inhibition of extracellular CD4 expression) (converted)
Protocol: Flow Cytometric Analyses. To study the effect of the CADA derivatives on surface CD4 antigen expression, MT-4 and SupT1 cells were incubated with a serial 5-fold dilution of the compounds (50, 10, 2, 0.4 and 0.08 μg/ml) or medium at 37° C. Cell surface CD4 antigen expression was analyzed at day 3 (MT-4) or day 4 (SupT1). […] Then the cells were washed, fixed with 1% formaldehyde and analyzed by flow cytometry in a FACScalibur (Becton Dickinson, San Jose, Calif., USA). […]
test_readout: IC50 (µM)

Answered cases to consult:
molecule | target_system | units_label | IC50
C=C1CN(S(=O)(=O)c2ccc(C)cc2)CCCN(CC2CC=CCC2)CCCN(S(=O)(=O)c2ccc(C)cc2)C1 (stereo not drawn) [QJ023] | CD4 (Homo sapiens, UniProt P01730) | µM | 0.615
C=C1CN(S(=O)(=O)c2ccc(C)cc2)CCCN(CCC(C)C)CCCN(S(=O)(=O)c2ccc(C)cc2)C1 [QJ038] | CD4 (Homo sapiens, UniProt P01730) | µM | 0.854
C=C1CN(S(=O)(=O)c2ccc(C)cc2)CCCN(CC2CC2)CCCN(S(=O)(=O)c2ccc(C)cc2)C1 [QJ041] | CD4 (Homo sapiens, UniProt P01730) | µM | 7.6
C=C1CN(S(=O)(=O)c2ccc(C)cc2)CCCN(CC(C)C)CCCN(S(=O)(=O)c2ccc(C)cc2)C1 [Compound 98-035] | CD4 (Homo sapiens, UniProt P01730) | µM | 9.73
C=C1CN(S(=O)(=O)c2ccc(C)cc2)CCCN(CCC)CCCN(S(=O)(=O)c2ccc(C)cc2)C1 [QJ029] | CD4 (Homo sapiens, UniProt P01730) | µM | 5.73

A. C=C1CN(S(=O)(=O)c2ccc(C)cc2)CCCN(C(=O)OCC)CCCN(S(=O)(=O)c2ccc(C)cc2)C1 [Compound 95-213]
B. Cc1ccc(S(=O)(=O)N2CCCN(Cc3ccccc3)CCCN(S(=O)(=O)c3ccc(C)cc3)CCC2)cc1 [MFS-SC001]
Of the pair A and B , name the member with the lesser recorded IC50. Pick one and reply with its label.
B
(B: 7.18 µM, A: 17.1 µM)

====

tested on: HIV-1 strain NL4.3; assay: Anti-HIV-1 assay (p24 Ag ELISA); assay type: cell-based; conditions: Human immunodeficiency virus 1, MT4; MT-4 cells; read-out: IC50 against HIV-1 NL4.3
test_readout: IC50 (µM)
Report the figure in µM without appending any unit label.

// map C=C1CN(S(=O)(=O)c2ccc(C)cc2)CCCN(Cc2ccccc2)CCCN(S(=O)(=O)c2ccc(C)cc2)C1 to recorded IC50 (system: HIV-1 strain NL4.3)
0.5

====

system: HIV-1 strain NL4.3; assay: Anti-HIV-1 assay (p24 Ag ELISA); type: cell-based; conditions: Human immunodeficiency virus 1, SUP-T1; SupT1 cells; read-out: IC50 against HIV-1 NL4.3
test_readout: IC50 (µM)
Report the figure in µM without appending any unit label.

Using the record for C=C1CN(S(=O)(=O)c2ccc(C)cc2)CCCN(Cc2ccccc2)CCCN(S(=O)(=O)c2ccc(C)cc2)C1 [CADA] , report its IC50.
3.1

====

target: CD4 (Homo sapiens, UniProt P01730); assay: CD4 down-modulation, flow cytometry with FITC-conjugated anti-CD4 (SK3) mAb, MT-4 cells; assay type: cell-based; design: To study the effect of the CADA derivatives on surface CD4 antigen expression, MT-4 and SupT1 cells were incubated; endogenous in cells; host or cells: MT-4, SupT1, PBMC; settings: MT-4 cells, day 3; read-out: IC50 CD4 (50% inhibition of extracellular CD4 expression) (converted)
test_readout: IC50 (µM)

Answered cases to consult:
cpd_smiles | observed
Cc1ccc(S(=O)(=O)N2CCCN(S(=O)(=O)c3ccc(C)cc3)CC(C)(O)CN(S(=O)(=O)c3ccc(C)cc3)CCC2)cc1 | 2.86
C=C1CN(S(=O)(=O)c2ccc(C)cc2)CCCN(Cc2ccc[nH]2)CCCN(S(=O)(=O)c2ccc(C)cc2)C1 | 6.78

I. Cc1ccc(S(=O)(=O)N2CCCN(Cc3ccccc3)CCCN(S(=O)(=O)c3ccc(C)cc3)CC(CO)C2)cc1
II. C=C1CN(S(=O)(=O)c2ccc(Br)cc2)CCCN(Cc2ccccc2)CCCN(S(=O)(=O)c2ccc(Br)cc2)C1
III. Cc1ccc(S(=O)(=O)N2CCCN(Cc3ccccc3)CCCN(S(=O)(=O)c3ccc(C)cc3)CCC2)cc1
Please order the records by their reported IC50, lowest number first. Provide the labels, sequenced as the question asks.
II, I, III
(II: 1.98 µM, I: 3.32 µM, III: 12.4 µM)

====

biological target: CD4 (Homo sapiens, UniProt P01730); test: CD4 down-modulation, flow cytometry with FITC-conjugated anti-CD4 (SK3) mAb, MT-4 cells; assay type: cell-based; set-up: To study the effect of the CADA derivatives on surface CD4 antigen expression, MT-4 and SupT1 cells were incubated; endogenous in cells; host or cells: MT-4, SupT1, PBMC; conditions: MT-4 cells, day 3; read-out: IC50 CD4 (50% inhibition of extracellular CD4 expression) (converted)
test_readout: IC50 (µM)

compound | units_label | observed
C=C1CN(S(=O)(=O)c2ccc(C)cc2)CCCN(C(C)CC)CCCN(S(=O)(=O)c2ccc(C)cc2)C1 (stereo not drawn) | µM | 2.12
C=C1CN(S(=O)(=O)c2ccc(C)cc2)CCCN(CC(C)CC)CCCN(S(=O)(=O)c2ccc(C)cc2)C1 (stereo not drawn) | µM | 0.943
C=C1CN(S(=O)(=O)c2ccc(C)cc2)CCCN(CC(C)C)CCCN(S(=O)(=O)c2ccc(C)cc2)C1 | µM | 8.78
C=C1CN(S(=O)(=O)c2ccc(C)cc2)CCCN(Cc2ccccc2)CCCN(S(=O)(=O)c2ccc(C)cc2)C1 | µM | 0.602
C=C1CN(S(=O)(=O)c2ccc(C)cc2)CCCN(CC2CC2)CCCN(S(=O)(=O)c2ccc(C)cc2)C1 | µM | 6.38
C=C1CN(S(=O)(=O)c2ccc(C)cc2)CCCN(CCC(C)C)CCCN(S(=O)(=O)c2ccc(C)cc2)C1 | µM | 0.73
C=C1CN(S(=O)(=O)c2ccc(C)cc2)CCCN(C2CCCC2)CCCN(S(=O)(=O)c2ccc(C)cc2)C1 | µM | 9.54
C=C1CN(S(=O)(=O)c2ccc(C)cc2)CCCN(CCC)CCCN(S(=O)(=O)c2ccc(C)cc2)C1 | µM | 4.83
Cc1ccc(S(=O)(=O)N2CCCN(Cc3ccccc3)CCCN(S(=O)(=O)c3ccc(C)cc3)CC(CCl)C2)cc1 | µM | 1.81
C=C1CN(S(=O)(=O)c2ccc(C)cc2)CCCN(CC2CCCCC2)CCCN(S(=O)(=O)c2ccc(C)cc2)C1 | µM | 0.357

I. C=C1CN(S(=O)(=O)c2ccc(C)cc2)CCCN(CC2CC=CCC2)CCCN(S(=O)(=O)c2ccc(C)cc2)C1 (stereo not drawn)
II. C=C1CN(S(=O)(=O)c2ccc(C)cc2)CCCN(C(C)C)CCCN(S(=O)(=O)c2ccc(C)cc2)C1
Of the pair I and II , name the member with the lesser recorded IC50. Pick one and reply with its label.
I
(I: 0.444 µM, II: 11.4 µM)

====

experiment: Cytotoxicity assay (trypan blue exclusion, propidium iodide); format: cell-based, human; conditions: human, MT-4 cells; read-out: CC50 (50% cytotoxic concentration)
test_readout: CC50 (µg/mL)
Report the figure in µg/mL without appending any unit label.

Answered cases to consult:
molecule | test_readout | units_label | observed
C=C1CN(S(=O)(=O)c2ccc(C)cc2)CCCN(C(C)CC)CCCN(S(=O)(=O)c2ccc(C)cc2)C1 (centres unmarked) | CC50 | µg/mL | 20.9
Cc1ccc(S(=O)(=O)N2CCCN(Cc3ccccc3)CCCN(S(=O)(=O)c3ccc(C)cc3)CC(=O)C2)cc1 | CC50 | µg/mL | 29.3
C=C1CN(S(=O)(=O)c2ccc(C)cc2)CCCN(Cc2ccncc2)CCCN(S(=O)(=O)c2ccc(C)cc2)C1 | CC50 | µg/mL | 21.3
C=C1CN(S(=O)(=O)c2ccc(COCCCC)cc2)CCCN(Cc2ccccc2)CCCN(S(=O)(=O)c2ccc(COCCCC)cc2)C1 | CC50 | µg/mL | 18.9
C=C1CN(S(=O)(=O)c2ccc(C)cc2)CCCN(CC(C)CC)CCCN(S(=O)(=O)c2ccc(C)cc2)C1 (centres unmarked) | CC50 | µg/mL | 22.1
C=C1CN(S(=O)(=O)c2ccc(C)cc2)CCCN(CCC(C)C)CCCN(S(=O)(=O)c2ccc(C)cc2)C1 | CC50 | µg/mL | 19.4

Using the record for C=C1CN(S(=O)(=O)c2ccc(Br)cc2)CCCN(Cc2ccccc2)CCCN(S(=O)(=O)c2ccc(Br)cc2)C1 , report its CC50.
35.7

Repeat for the following molecule: C=C1CN(S(=O)(=O)c2ccc(C)cc2)CCCN(C(C)C)CCCN(S(=O)(=O)c2ccc(C)cc2)C1
22.2

Repeat for the following molecule: C=C1CN(S(=O)(=O)c2ccc(C)cc2)CCCN(S(=O)(=O)c2ccc(C)cc2)CCCN(S(=O)(=O)c2ccc(C)cc2)C1
27.8

Repeat for the following molecule: Cc1ccc(S(=O)(=O)N2CCCN(Cc3ccccc3)CCCN(S(=O)(=O)c3ccc(C)cc3)CC(CO)C2)cc1
26.1

Repeat for the following molecule: Cc1ccc(S(=O)(=O)N2CCCN(S(=O)(=O)c3ccc(C)cc3)CC(C)(O)CN(S(=O)(=O)c3ccc(C)cc3)CCC2)cc1
32
